# Measurement Notes: Luminescent data (absorption, emission, quantum yield, brightness) in solvents
# Assay type: physicochemical
# Condition Summary: Octan-1-ol (ϵr 10.3, viscosity 7.36 cP)
Recorded Metric: pSS (cm^−1)
Give your result in cm^−1 as a bare value.

Consider the compound CCCCCOc1cc2c3cc(OCCCCC)c(OCCCCC)cc3c3c(cc(OCCCCC)c4oc(-c5c6ccccc6cc6ccccc56)nc43)c2cc1OCCCCC and give its measured pSS.
13200

Endpoint output: pSS of CCCCCOc1cc2c3cc(OCCCCC)c(OCCCCC)cc3c3c(cc(OCCCCC)c4oc(-c5ccc6cc7ccccc7cc6c5)nc43)c2cc1OCCCCC . Value?
18000

I have this compound here, CCCCCOc1cc2c3cc(OCCCCC)c(OCCCCC)cc3c3c(cc(OCCCCC)c4oc(-c5ccccc5)nc43)c2cc1OCCCCC , and I need its recorded pSS.
15800

Give the measured pSS of CCCCCOc1cc2c3cc(OCCCCC)c(OCCCCC)cc3c3c(cc(OCCCCC)c4oc(-c5cccc6ccccc56)nc43)c2cc1OCCCCC .
17000

Name the recorded pSS for CCCCCOc1cc2c3cc(OCCCCC)c(OCCCCC)cc3c3c(cc(OCCCCC)c4oc(CCCC)nc43)c2cc1OCCCCC .
8300

Suppose we examine the compound CCCCCOc1cc2c3cc(OCCCCC)c(OCCCCC)cc3c3c(cc(OCCCCC)c4oc(-c5ccc6ccccc6c5)nc43)c2cc1OCCCCC ; what pSS value has been reported?
16600

---

# Measurement Notes: Luminescent data (absorption, emission, quantum yield, brightness) in solvents
# Type: physicochemical
# Condition Summary: Octan-1-ol (ϵr 10.3, viscosity 7.36 cP)
Recorded Metric: Emission λmax (nm)
Expressed in nm, but write only the number.

Given the molecule CCCCCOc1cc2c3cc(OCCCCC)c(OCCCCC)cc3c3c(cc(OCCCCC)c4oc(-c5ccc6ccccc6c5)nc43)c2cc1OCCCCC , what is its reported Emission λmax?
497

Bench note: what Emission λmax did CCCCCOc1cc2c3cc(OCCCCC)c(OCCCCC)cc3c3c(cc(OCCCCC)c4oc(-c5c6ccccc6cc6ccccc56)nc43)c2cc1OCCCCC show?
384

I have this molecule here, CCCCCOc1cc2c3cc(OCCCCC)c(OCCCCC)cc3c3c(cc(OCCCCC)c4oc(CCCC)nc43)c2cc1OCCCCC , and I need its recorded Emission λmax.
367

Field request: Emission λmax | item: CCCCCOc1cc2c3cc(OCCCCC)c(OCCCCC)cc3c3c(cc(OCCCCC)c4oc(-c5ccccc5)nc43)c2cc1OCCCCC
473

Quick one: Emission λmax for CCCCCOc1cc2c3cc(OCCCCC)c(OCCCCC)cc3c3c(cc(OCCCCC)c4oc(-c5cccc6ccccc56)nc43)c2cc1OCCCCC ?
515

Tell me the measured Emission λmax of CCCCCOc1cc2c3cc(OCCCCC)c(OCCCCC)cc3c3c(cc(OCCCCC)c4oc(-c5ccc6cc7ccccc7cc6c5)nc43)c2cc1OCCCCC , please.
526

---

# Measurement Notes: Luminescence data for pairs of compounds absorbing at the same wavelength and emitting at different wavelengths
# Format: physicochemical
# Condition Summary: solvent not given
Assignment: determine reported Absorption λMax for the given compounds.
Give the number; nm is assumed, so skip it.

Value lookup for Absorption λMax; key = CCCCCOc1cc2c3cc(OCCCCC)c(OCCCCC)cc3c3c(cc(OCCCCC)c4oc(-c5ccc6ccccc6c5)nc43)c2cc1OCCCCC [Compound 3]
272

Form field: reported Absorption λMax of CCCCCOc1cc2c3cc(OCCCCC)c(OCCCCC)cc3c3c(cc(OCCCCC)c4oc(-c5ccc(C#N)cc5)nc43)c2cc1OCCCCC [Compound 12]
272

// returns reported Absorption λMax for input CCCCCOc1cc2c3cc(OCCCCC)c(OCCCCC)cc3c3c(cc(OCCCCC)c4oc(-c5ccc(N(C)C)cc5)nc43)c2cc1OCCCCC [Compound 22]
271

State the recorded Absorption λMax for this entry: CCCCCOc1cc2c3cc(OCCCCC)c(OCCCCC)cc3c3c(cc(OCCCCC)c4oc(-c5ccc(OC)cc5)nc43)c2cc1OCCCCC [Compound 45]
270
